assay: TOR pathway GLN3 branch reporter MEP2-GFP changes – S. cerevisiae, multiplex flow cytometry, primary screen (AID 1867);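 further: median GFP channel fluorescence of barcode-gated MEP2-GFP cells measured by flow cytometry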; settings: S. cerevisiae MEP2-GFP strain, 3 h, at 10 µM, hits give high values, 100% means same as DMSO wells
Records with an inconclusive call do not appear.
Property: GFP response vs DMSO; scope: individual compounds
Quick note: give the figure in %, leave out the unit.

# example entries with known answers
COc1ccc(C2=NOC(COc3ccc4c(C)cc(=O)oc4c3)C2)c(OC)c1 (stereo unspecified)	94.6
O=C1C2CC=C(Cl)CC2C(=O)N1CCc1c[nH]c2ccccc12 (stereo unspecified)	108

GFP response vs DMSO for O=C(O)CCC(=O)c1ccc(-c2ccccc2)cc1 is 102

Value of measured GFP response vs DMSO for the entry O=C(/C=C/c1ccc(F)cc1)N1CC[C@@]2(O)CCCC[C@H]2C1 : 112

Note to self: GFP response vs DMSO recorded for Cc1cc(-c2nn(-c3ccccc3F)cc2CN2CCCC(O)C2)c(C)s1 (stereo unspecified) was 101
